The reported measurements were obtained from the supplement of paper PMC10567573.

experiment_summary: protein stability index of a GFP-peptide fusion (GPS, HEK-293T) (PSI 1-6); higher = more stable;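 further: 24-mer peptide tiles fused after GFP, lentivirally expressed, FACS-sorted into six equal bins by GFP/DsRed ratio, decoded by Illumina sequencing, PSI is the read-weighted mean bin number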
applied_conditions: treatment: DMSO; c terminus: a fixed tail appended
In this section we review reported protein stability index values for a set of sequences.
Lab note: jot the number down without any unit.

Example entries begin here.
input_sequence="HVKMMLSGVCLFAVFIALLPILGH [PTGFR]" measurement=2.97
input_sequence="EDVEAVQKLQDVLHEALQDYEAGQ [ESRRG]" measurement=4.92

// next entry
query: For the sequence QLNGTANDTAGPELPDPLGGLLDE [NFE2L1] , what protein stability index is on record?
result: 5.11
